Neutralization potency (IU/mg), RFFIT for assorted binders
target system: CVS-11 rabies virus (rabies virus) (UniProt O92284)
assay info: cell-based or functional assay

{"binder": "Mouse CT.RV 7G11A3 2G11 (antibody, V domains shown) VH: EVQLVESGGGLVKPGGSLILSCAASGFTFSGFAMSWVRQTPEKRLEWVATISSGGTYTYSPDSVMGRFTISRDNAKNTLYLQMSSLRSEDTAMYYCARRLRRNYYSMDYWGQGTSVTVSS VL: DVVLTQAPLSLPVNIGDQASISCKSTKSLLNSDGFTYLDWYLQKPGQSPQLLIYLVSNRFSGVPDRFSGSGSGTDFTLKISRVEAEDLGIYFCFQSNYLPFTFGSGTKLEIK", "Neutralization potency (IU/mg), RFFIT": 1670}
{"binder": "Hu1A9-2 (antibody, V domains shown) VH: QVQLVQSGAEVKKPGASVKVSCKASGYSFTDYIMLWVRQAPGQRLEWIGDIYPYYGSTSYNLKFKGKATLTVDTSASTAYMELSSLRSEDTAVYYCARQGGDGNYVLFDYWGQGTLVTVSS VL: DIQMTQSPSSLSASVGDRVTITCKASQNVGTTVAWYQQKPGKAPKVLIYSASYRYSGVPSRFSGSGSGTDFTLTISSLQPEDFATYYCQQYNSYPFTFGQGTKLEIKR", "Neutralization potency (IU/mg), RFFIT": 1310}
{"binder": "Hu1A9-1 (antibody, V domains shown) VH: QVQLVQSGAEVKKPGASVKVSCKASGYSFTDYIMLWVRQAPGQRLEWIGDIYPYYGSTSYNLKFKGKATLTVDTSASTAYMELSSLRSEDTAVYYCARQGGDGNYVLFDYWGQGTLVTVSS VL: DIQMTQSPSSLSASVGDRVTITCKASQNVGTTVAWYQQKPGKAPKALIYSASYRYSGVPSRFSGSGSGTDFTLTISSLQPEDFATYYCQQYNSYPFTFGQGTKLEIKR", "Neutralization potency (IU/mg), RFFIT": 2290}
{"binder": "Mouse CT.RV 3D11E3 1A9 (antibody, V domains shown) VH: EIQLQQTGPELVKPGASVKISCKASGYSFTDYIMLWVKQSHGKSLEWIGDIYPYYGSTSYNLKFKGKATLTVDKSSSTAYMQLNSLTSEDSAVYYCARQGGDGNYVLFDYWGQGTTLTVSS VL: DIVMTQSQKFMSTSVGDRVSVTCKASQNVGTTVAWYQQKPGQSPKALIYSASYRYSGVPDRFTGSGSGTDFTLTISNVQSEDLAEYFCQQYNSYPFTFGSGTKLEIK", "Neutralization potency (IU/mg), RFFIT": 1260}
